These data points were gathered from PubChem BioAssay.

Tested on: Inhibin beta A chain (activin A)
Assay: small molecules binding activin A – biochemical, small-molecule microarray, 635 nm fluorescence scan, primary screen (AID 1107);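 further: mouse activin A protein probed at 4.33 µg/mL on printed slides; score merges bound-protein fluorescence near 667 nm with spot signal-to-noise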
Details: INHBA, higher = more signal
Categories are assigned from the measured composite z-score using these intervals: 1 (below 0.4), 2 (0.4 to below 0.9), 3 (0.9 or more)

-- ask Just checking, what class would you give C=C(CCCC)/C(=C/C[C@H](OC(C)=O)c1cccc(OCCO)c1)c1cnc2ccccc2c1 here?
-- reply 3

New cases:
-- ask Just checking, what class would you give COc1ccc([Si](C)(C)[C@H]2[C@H](CCO)O[C@@]3(C(=O)N(Cc4ccc(NC(=O)[C@H](C)O)cc4)c4ccccc43)[C@@H]2C)cc1 here?
-- reply 2

-- ask Just checking, what class would you give COCC(=C=CC[C@H](O)c1ccccc1OCCO)C[C@H](O)COCc1ccccc1 here?
-- reply 2

-- ask Just checking, what class would you give CCOC(=O)C1=C[C@@H](C(C)(C)C)N(S(=O)(=O)c2ccc(C)cc2)[C@H]1c1ccc(C#N)cc1 here?
-- reply 2

-- ask Just checking, what class would you give Cc1ccc(S[C@]2(C(=O)NCc3ccccc3)CC(=O)N(Cc3ccccc3C(F)(F)F)[C@@H]2c2ccc(CO)cc2)cc1 here?
-- reply 1

-- ask Just checking, what class would you give CCCC=C(CCC)[C@@H](NC(=O)c1ccc(C(F)(F)F)cc1)c1ccc(C(F)(F)F)cc1 here?
-- reply 3

-- ask Just checking, what class would you give COc1ccc(C(=O)Nc2ccc3c(c2)[C@@]2(O[C@H](CCO)[C@@H]([Si](C)(C)c4ccc(OC)cc4)[C@@H]2C)C(=O)N3Cc2ccccc2)cc1 here?
-- reply 3

-- ask Just checking, what class would you give CN1C(=O)C2C(C1=O)C1C=C(c3ccc(CO)cc3)C2C(C2CC2)N1C (stereo not given) here?
-- reply 1

-- ask Just checking, what class would you give C=CCOC(=O)[C@H]1[C@@H]2C(=O)O[C@@H](c3ccccc3)[C@@H](c3ccccc3)N2[C@@H](c2ccc(OCCOC(=O)[C@H]3C[C@H]4C(=O)N[C@@H](CC(C)C)C(=O)N4[C@H]3c3ccc(O)cc3)cc2)[C@]12C(=O)Nc1ccccc12 here?
-- reply 2

-- ask Just checking, what class would you give COC(=O)[C@@]1(Cc2ccc(OC)cc2)[C@H]2c3cc(C(=O)N4CCCC4)n(Cc4ccc(Cl)c(C(F)(F)F)c4)c3C[C@H]2CN1C(=O)c1ccccc1 here?
-- reply 2

-- ask Just checking, what class would you give CC(C)=CCCC=C(C)C(O)C1C=CC2C(=O)N(c3ccccc3)C(=O)C2N1Nc1ccc(C#N)cc1 (stereo not given) here?
-- reply 3

-- ask Just checking, what class would you give CCCCCC1=C2CNC(Cc3ccccc3)(C(=O)OC)C=C2C(C)C1=O (stereo not given) here?
-- reply 3

-- ask Just checking, what class would you give Cc1ccc(F)cc1S(=O)(=O)N[C@H]1CCN(Cc2ccc(OC(C)C)cc2)C1 here?
-- reply 1
